Consider the following compounds; for each one, report its hERG current change (%, negative = inhibition) at 1uM.
- subject.of.test: human ether-à-go-go-related gene (hERG) potassium channel (human, UniProt Q12809)
- Sequence (Q12809 whole entry, looked up): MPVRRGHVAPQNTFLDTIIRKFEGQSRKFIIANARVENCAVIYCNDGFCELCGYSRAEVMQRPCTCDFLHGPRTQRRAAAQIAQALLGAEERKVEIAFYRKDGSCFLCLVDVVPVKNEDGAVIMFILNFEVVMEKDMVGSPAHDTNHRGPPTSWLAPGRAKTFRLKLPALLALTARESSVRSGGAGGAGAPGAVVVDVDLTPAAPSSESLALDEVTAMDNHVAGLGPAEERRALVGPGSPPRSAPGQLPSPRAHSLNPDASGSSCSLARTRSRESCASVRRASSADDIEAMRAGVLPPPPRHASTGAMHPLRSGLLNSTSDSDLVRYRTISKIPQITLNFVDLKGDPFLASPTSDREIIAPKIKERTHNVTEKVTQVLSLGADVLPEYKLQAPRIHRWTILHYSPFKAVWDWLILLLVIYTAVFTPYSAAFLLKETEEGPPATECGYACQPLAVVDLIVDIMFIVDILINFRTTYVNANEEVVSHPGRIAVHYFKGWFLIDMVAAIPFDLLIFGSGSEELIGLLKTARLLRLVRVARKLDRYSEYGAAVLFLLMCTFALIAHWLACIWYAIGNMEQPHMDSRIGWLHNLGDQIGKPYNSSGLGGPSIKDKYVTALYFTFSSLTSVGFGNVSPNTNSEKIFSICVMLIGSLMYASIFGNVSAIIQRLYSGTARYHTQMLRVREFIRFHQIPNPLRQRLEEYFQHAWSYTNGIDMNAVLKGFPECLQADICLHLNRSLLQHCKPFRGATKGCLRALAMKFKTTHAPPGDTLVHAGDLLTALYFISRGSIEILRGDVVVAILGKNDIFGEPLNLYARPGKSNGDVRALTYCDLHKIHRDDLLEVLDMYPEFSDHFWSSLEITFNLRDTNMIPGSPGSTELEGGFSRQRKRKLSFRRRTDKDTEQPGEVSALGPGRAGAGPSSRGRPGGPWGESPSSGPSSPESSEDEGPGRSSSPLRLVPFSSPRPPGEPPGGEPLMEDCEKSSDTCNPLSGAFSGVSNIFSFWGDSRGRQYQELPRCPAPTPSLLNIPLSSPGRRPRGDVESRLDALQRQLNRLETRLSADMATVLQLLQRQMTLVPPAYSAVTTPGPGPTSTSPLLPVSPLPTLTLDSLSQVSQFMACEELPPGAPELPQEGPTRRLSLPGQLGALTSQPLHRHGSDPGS
- test.summary: primary screen, population patch clamp on CHO cells stably expressing hERG; higher = less effect of the substance
The campaign covered roughly 310,000 compounds. About 2,200 (0.71%) showed an effect of 50% or more. The effect is printed as a negative number. The sample holds strong results, similar compounds and a random draw of the others, so the mix is not that of the screen.

GET /values?readout=hERG current change (%, negative = inhibition) at 1uM&item= COc1ccc(C(=O)NC2CCCCCC2)cc1OC1CCN(C(C)=O)CC1
7.33%

GET /values?readout=hERG current change (%, negative = inhibition) at 1uM&item= CCSc1nc2sc3c(c2c(=O)[nH]1)CC(C)(CC)OC3 (centres unmarked)
18.7%

GET /values?readout=hERG current change (%, negative = inhibition) at 1uM&item= Brc1csc(C=Nc2ccc3c(c2)OCCOCCOCCOCCO3)c1
-78.1%

GET /values?readout=hERG current change (%, negative = inhibition) at 1uM&item= O=C(NC1CCN(Cc2ccccc2)CC1)c1ccc2c(c1)[nH]c(=O)n2Cc1ccc(F)cc1
6.14%

GET /values?readout=hERG current change (%, negative = inhibition) at 1uM&item= COc1ccc(C(=O)NCCCSC)cc1OC1CCN(C(C)C)CC1
13.4%

GET /values?readout=hERG current change (%, negative = inhibition) at 1uM&item= CC(C)c1ccccc1NC(=O)COC(=O)CNC(=O)c1ccc(Br)cc1
11%

GET /values?readout=hERG current change (%, negative = inhibition) at 1uM&item= CC(C)(C)OC(=O)N/N=C\c1ccc(OC(=O)c2ccco2)cc1
10.8%

GET /values?readout=hERG current change (%, negative = inhibition) at 1uM&item= O=C1C(=O)N(CCN2CCOCC2)C(c2cccc(Cl)c2)/C1=C(\O)c1ccc2c(c1)OCCO2 (centres unmarked)
2.15%
